Where do the numbers come from? From patent US8871753B2.

molecular target: human JAK3 (a.a. 781-1124) (Homo sapiens, UniProt P52333); construct: JAK3 (a.a. 781-1124); His tag (N); made in house; host or cells: insect cells (baculovirus); test: In vitro JAK kinase assay (HTRF, phosphorylation of a biotinylated peptide), JAK3; assay type: biochemical; settings: method AA1 (3 μM ATP) or AA2 (1000 μM ATP), not stated per value
Sequence (P52333 781-1124): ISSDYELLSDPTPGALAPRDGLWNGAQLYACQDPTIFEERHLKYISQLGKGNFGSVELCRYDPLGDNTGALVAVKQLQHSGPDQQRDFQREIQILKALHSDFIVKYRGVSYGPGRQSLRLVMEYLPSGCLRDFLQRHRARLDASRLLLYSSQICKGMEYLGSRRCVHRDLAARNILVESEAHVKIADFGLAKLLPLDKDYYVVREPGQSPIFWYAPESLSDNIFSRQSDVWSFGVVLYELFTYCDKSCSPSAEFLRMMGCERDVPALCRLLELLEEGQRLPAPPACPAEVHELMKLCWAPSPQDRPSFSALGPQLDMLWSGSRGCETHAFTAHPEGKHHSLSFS
Structures can show the parent of a compound that is named as a salt.
VALUE_TYPE: IC50

Observe how each entry below is paired with its result.
{"columns": ["COMPOUND", "IC50"],
 "data": [
  ["N#Cc1ccc(S(=O)(=O)N2CCC(CC(=O)Nc3ccc4cc3CCc3cccc(c3)Nc3ncc(Cl)c(n3)N4)CC2)cc1 [Example A209, trifluoroacetate]", "> 200 nM"],
  ["O=C(CC1CCN(c2nc3cccnc3o2)CC1)Nc1ccc2cc1CCc1cncc(c1)Nc1ncc(Cl)c(n1)N2 [Example A158, tris(trifluoroacetate)]", "> 10000 nM"],
  ["N#Cc1ccc(S(=O)(=O)N2CCC(CC(=O)Nc3ccc4cc3CCc3cncc(c3)Nc3ncc(Cl)c(n3)N4)CC2)cc1 [Example A199, bis(trifluoroacetate)]", "> 200 nM"],
  ["O=C1CCc2cccc(c2)Nc2nc(ncc2Cl)Nc2cccc1c2 [Example A5, trifluoroacetate]", "> 100 nM"],
  ["O=C(CC1CCN(c2ncc(F)cn2)CC1)Nc1ccc2cc1CCc1cncc(c1)Nc1ncc(Cl)c(n1)N2 [Example A169, tris(trifluoroacetate)]", "> 1000 nM"],
  ["COc1cccc(S(=O)(=O)N2CCC(CC(=O)Nc3ccc4cc3CCc3cccc(c3)Nc3ncc(Cl)c(n3)N4)CC2)c1 [Example A206, trifluoroacetate]", "> 200 nM"],
  ["COc1ccc(NC(=O)N2CCC(CC(=O)Nc3ccc4cc3CCc3cncc(c3)Nc3ncc(Cl)c(n3)N4)CC2)cc1 [Example A154, bis(trifluoroacetate)]", "> 100 nM"],
  ["Cc1ccccc1NC(=O)N1CCC(CC(=O)Nc2ccc3cc2CCc2cncc(c2)Nc2ncc(Cl)c(n2)N3)CC1 [Example A149, bis(trifluoroacetate)]", "> 100 nM"]
]}

Req: Query IC50 for O=C(CC1CCN(c2nc3ccccc3s2)CC1)Nc1ccc2cc1CCc1cncc(c1)Nc1ncc(Cl)c(n1)N2 [Example A157, tris(trifluoroacetate)]
Resp: > 10000 nM

Req: Give IC50 for the following compound: O=C(Nc1ccc2cc1CCc1cccc(c1)Nc1ncc(Cl)c(n1)N2)C1CCN(C(=S)Nc2ccccc2)CC1 [Example A43, trifluoroacetate]
Resp: 36 nM

###

Reported IC50 by item:
target: Recombinant Human Anaplastic Lymphoma Kinase (Homo sapiens, UniProt Q9UM73); construct: purchased Invitrogen, Carlsbad, Calif; experiment: ALK HTRF kinase assay; type: biochemical; settings: Table B1; cells without percent sign
Sequence (Q9UM73 19-1620): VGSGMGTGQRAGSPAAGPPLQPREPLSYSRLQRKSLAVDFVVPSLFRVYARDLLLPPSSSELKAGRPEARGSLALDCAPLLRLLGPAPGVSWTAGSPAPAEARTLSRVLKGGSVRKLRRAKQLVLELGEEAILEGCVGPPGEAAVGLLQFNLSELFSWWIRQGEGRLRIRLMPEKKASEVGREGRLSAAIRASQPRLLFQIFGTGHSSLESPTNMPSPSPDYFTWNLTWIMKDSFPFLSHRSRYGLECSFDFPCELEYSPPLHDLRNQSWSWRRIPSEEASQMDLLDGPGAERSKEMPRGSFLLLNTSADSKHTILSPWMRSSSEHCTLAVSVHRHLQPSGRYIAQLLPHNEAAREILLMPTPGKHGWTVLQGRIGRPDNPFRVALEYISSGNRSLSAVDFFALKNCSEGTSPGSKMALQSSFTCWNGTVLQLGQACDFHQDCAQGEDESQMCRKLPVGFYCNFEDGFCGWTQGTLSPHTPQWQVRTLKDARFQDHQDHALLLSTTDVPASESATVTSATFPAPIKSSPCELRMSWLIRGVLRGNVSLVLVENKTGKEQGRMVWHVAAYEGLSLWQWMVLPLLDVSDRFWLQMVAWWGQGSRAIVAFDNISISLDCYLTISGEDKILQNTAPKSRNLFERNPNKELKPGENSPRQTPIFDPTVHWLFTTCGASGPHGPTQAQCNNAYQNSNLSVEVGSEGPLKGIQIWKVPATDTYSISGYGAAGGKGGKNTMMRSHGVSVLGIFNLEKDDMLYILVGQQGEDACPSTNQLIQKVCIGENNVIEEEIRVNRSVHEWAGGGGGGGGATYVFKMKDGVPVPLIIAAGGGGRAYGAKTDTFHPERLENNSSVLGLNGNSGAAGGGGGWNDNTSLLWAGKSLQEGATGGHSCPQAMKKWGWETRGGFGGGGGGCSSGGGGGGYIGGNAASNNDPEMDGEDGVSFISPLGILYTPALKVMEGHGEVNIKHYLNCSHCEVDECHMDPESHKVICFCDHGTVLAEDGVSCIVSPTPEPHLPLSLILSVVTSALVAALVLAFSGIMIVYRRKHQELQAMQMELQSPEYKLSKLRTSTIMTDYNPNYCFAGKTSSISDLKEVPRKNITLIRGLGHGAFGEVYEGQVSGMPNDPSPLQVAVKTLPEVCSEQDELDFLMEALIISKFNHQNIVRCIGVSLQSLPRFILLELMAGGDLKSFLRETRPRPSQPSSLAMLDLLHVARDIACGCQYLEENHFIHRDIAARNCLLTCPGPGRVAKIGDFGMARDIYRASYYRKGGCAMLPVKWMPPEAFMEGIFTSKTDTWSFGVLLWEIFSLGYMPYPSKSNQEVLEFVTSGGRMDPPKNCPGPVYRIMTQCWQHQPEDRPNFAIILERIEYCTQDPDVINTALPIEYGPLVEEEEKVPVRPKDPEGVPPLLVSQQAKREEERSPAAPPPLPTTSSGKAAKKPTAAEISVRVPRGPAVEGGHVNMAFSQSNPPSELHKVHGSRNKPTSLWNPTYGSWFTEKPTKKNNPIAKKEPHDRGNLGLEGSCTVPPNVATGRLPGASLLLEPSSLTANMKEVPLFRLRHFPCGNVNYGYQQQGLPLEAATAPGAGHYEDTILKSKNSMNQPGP
Structures can show the parent of a compound that is named as a salt.

Before answering, review these 6 worked examples.
{"columns": ["MOLECULE", "ASSAYED_TARGET", "VALUE_REPORTED"],
 "data": [
  ["N#Cc1ccc(NC(=O)Nc2ccc3cc2CCc2cccc(c2)Nc2ncc(Cl)c(n2)N3)cc1 [Example B96, trifluoroacetate]", "Recombinant Human Anaplastic Lymphoma Kinase (Homo sapiens, UniProt Q9UM73)", "> 1 µM"],
  ["CC(C)S(=O)(=O)Nc1ccc2cc1CCc1cccc(c1)Nc1ncc(Cl)c(n1)N2 [Example B143, trifluoroacetate]", "Recombinant Human Anaplastic Lymphoma Kinase (Homo sapiens, UniProt Q9UM73)", "> 1 µM"],
  ["CC(C)(C)NS(=O)(=O)c1cc2cc(c1)Nc1nc(ncc1Br)Nc1cccc(c1)CC2 [Example B17, trifluoroacetate]", "Recombinant Human Anaplastic Lymphoma Kinase (Homo sapiens, UniProt Q9UM73)", "> 10 µM"],
  ["Clc1cnc2nc1Nc1cc(cc(CN3CCN(Cc4ccc(Oc5ncccn5)cc4)CC3)c1)CCc1cccc(c1)N2 [Example B193, tris(trifluoroacetate)]", "Recombinant Human Anaplastic Lymphoma Kinase (Homo sapiens, UniProt Q9UM73)", "> 1 µM"],
  ["O=C(Nc1cccc(Cl)c1)Nc1ccc2cc1CCc1cccc(c1)Nc1ncc(Cl)c(n1)N2 [Example B85, trifluoroacetate]", "Recombinant Human Anaplastic Lymphoma Kinase (Homo sapiens, UniProt Q9UM73)", "> 1 µM"],
  ["O=C(NCc1ccccc1)Nc1ccc2cc1CCc1cccc(c1)Nc1ncc(Cl)c(n1)N2 [Example B93, trifluoroacetate]", "Recombinant Human Anaplastic Lymphoma Kinase (Homo sapiens, UniProt Q9UM73)", "> 1 µM"]
]}

Req: State, for Recombinant Human Anaplastic Lymphoma Kinase (Homo sapiens, UniProt Q9UM73), measured IC50 of the molecule listed here: O=C(O)c1cc2cc(c1)Nc1nc(ncc1Cl)Nc1cccc(c1)CC2 [Example B6, trifluoroacetate]
Resp: > 1 µM

Req: State IC50 on Recombinant Human Anaplastic Lymphoma Kinase (Homo sapiens, UniProt Q9UM73). Entry: O=[N+]([O-])c1ccc(CN2CCN(Cc3cc4cc(c3)Nc3nc(ncc3Cl)Nc3cccc(c3)CC4)CC2)cc1 [Example B194, tris(trifluoroacetate)]
Resp: > 1 µM

###

molecular target: TYK2 (Homo sapiens, UniProt P29597); assay: TYK2 kinase inhibition (Table A1); type: biochemical; settings: Table D1
Sequence (P29597 whole entry): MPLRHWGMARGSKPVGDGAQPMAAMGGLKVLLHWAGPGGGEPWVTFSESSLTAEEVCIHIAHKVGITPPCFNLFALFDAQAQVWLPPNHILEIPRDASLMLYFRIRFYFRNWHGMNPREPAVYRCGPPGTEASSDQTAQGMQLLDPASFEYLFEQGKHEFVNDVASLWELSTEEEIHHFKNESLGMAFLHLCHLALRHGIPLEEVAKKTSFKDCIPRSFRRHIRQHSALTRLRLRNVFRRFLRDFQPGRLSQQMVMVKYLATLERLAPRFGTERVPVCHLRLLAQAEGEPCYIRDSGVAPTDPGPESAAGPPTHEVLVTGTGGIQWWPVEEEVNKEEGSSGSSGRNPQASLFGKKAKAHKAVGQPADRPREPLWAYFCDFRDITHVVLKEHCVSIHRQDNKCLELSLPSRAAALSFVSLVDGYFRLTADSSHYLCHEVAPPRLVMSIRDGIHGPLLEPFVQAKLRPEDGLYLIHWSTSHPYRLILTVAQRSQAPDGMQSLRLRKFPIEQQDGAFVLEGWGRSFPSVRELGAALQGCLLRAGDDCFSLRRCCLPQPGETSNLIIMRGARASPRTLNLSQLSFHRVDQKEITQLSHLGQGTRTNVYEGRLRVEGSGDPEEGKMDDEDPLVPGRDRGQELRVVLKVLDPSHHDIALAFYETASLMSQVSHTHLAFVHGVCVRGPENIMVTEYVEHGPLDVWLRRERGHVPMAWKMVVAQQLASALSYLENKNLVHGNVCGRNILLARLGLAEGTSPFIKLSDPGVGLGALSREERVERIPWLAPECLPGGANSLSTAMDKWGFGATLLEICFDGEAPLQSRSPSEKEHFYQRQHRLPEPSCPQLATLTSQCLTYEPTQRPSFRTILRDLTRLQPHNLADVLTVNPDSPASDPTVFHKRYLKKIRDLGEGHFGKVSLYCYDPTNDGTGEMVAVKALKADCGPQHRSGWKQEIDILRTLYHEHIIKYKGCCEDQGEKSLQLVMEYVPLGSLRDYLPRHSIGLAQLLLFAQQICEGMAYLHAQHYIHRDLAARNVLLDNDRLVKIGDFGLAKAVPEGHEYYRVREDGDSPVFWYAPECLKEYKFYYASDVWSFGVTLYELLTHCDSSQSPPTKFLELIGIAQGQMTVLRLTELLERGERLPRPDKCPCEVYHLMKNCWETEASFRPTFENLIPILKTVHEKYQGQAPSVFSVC
Where a name gives a salt, the structure may show the parent alone.
VALUE_TYPE: IC50 (nM)

A selection of reference data follows.
{"columns": ["COMPOUND", "SCALE_UNIT", "IC50"],
 "data": [
  ["CC(=O)N1CCN(c2ccc(-c3cc4cc(c3)Nc3ncc(Cl)c(n3)Nc3cccc(c3)OCC4)cn2)CC1 [Example D37, tris(trifluoroacetate)]", "nM", 1.4],
  ["O=C(COc1ccc2cc1CCc1cncc(c1)Nc1ncc(Cl)c(n1)N2)N1CCN(C(=O)Nc2ccccc2)CC1 [Example D264, bis(trifluoroacetate)]", "nM", 300],
  ["Clc1cnc2nc1Nc1cccc(c1)NCCCc1cccc(c1)N2 [Example D75, bis(trifluoroacetate)]", "nM", 60]
]}

(a) O=C(NCc1ccccc1)c1cc2cc(c1)OCCSc1cccc(c1)Nc1nc(ncc1Cl)N2 [Example D51, trifluoroacetate]
(b) O=C(Nc1ccc2[nH]ccc2c1)c1cc2cc(c1)OCCSc1cccc(c1)Nc1nc(ncc1Cl)N2 [Example D56, trifluoroacetate]
Req: Could you kindly indicate whether a or b has the higher IC50 value? // output: label of the selected item
Resp: b
(b: 14 nM, a: 4.5 nM)

(I) CC(=O)N1CCC[C@@H](CC(=O)Nc2ccc3cc2CCc2cccc(c2)Nc2ncc(Cl)c(n2)N3)C1 [Example D200, trifluoroacetate]
(II) Clc1cnc2nc1Nc1cccc(c1)CSCCc1cccc(c1)N2 [Example D32, trifluoroacetate]
Req: Recorded IC50 values differ for I and II ; which one is higher? Reply briefly: the label of your chosen item.
Resp: II

(I) O=C(CC1CN(C(=O)c2cn[nH]c2)C1)Nc1ccc2cc1CCc1cncc(c1)Nc1ncc(Cl)c(n1)N2 [Example D149, bis(trifluoroacetate)]
(II) N#Cc1ccccc1S(=O)(=O)N1CCC(CCNc2ccc3cc2CCc2cncc(c2)Nc2ncc(Cl)c(n2)N3)CC1 [Example D222, tris(trifluoroacetate)]
Req: Which value of IC50 is numerically greater: that of I or that of II ? The response must carry the label of the picked entry.
Resp: I

(A) O=C(Cn1c(=O)oc2c3cc(cc21)Nc1nc(ncc1Cl)Nc1cccc(c1)CC3)NCc1ccccc1 [Example D186, trifluoroacetate]
(B) O=C(Nc1ccccc1)Nc1cc2cc(c1)OCCSc1cccc(c1)Nc1nc(ncc1Cl)N2 [Example D65, trifluoroacetate]
Req: Exercise: compare A and B ; which one has the greater IC50? Respond with the label that goes with your answer.
Resp: A

(I) O=C(C[C@H]1CCCN(C(=O)c2ccccc2)C1)Nc1ccc2cc1CCc1cncc(c1)Nc1ncc(Cl)c(n1)N2 [Example D207, bis(trifluoroacetate)]
(II) O=C(Cn1c(=O)oc2c3cc(cc21)Nc1nc(ncc1Cl)Nc1cccc(c1)CC3)Nc1ccccc1 [Example D185, trifluoroacetate]
(III) O=C(C[C@H]1CCCN(C(=O)Nc2ccccc2)C1)Nc1ccc2cc1CCc1cncc(c1)Nc1ncc(Cl)c(n1)N2 [Example D199, bis(trifluoroacetate)]
(IV) NC1CCN(c2ccc3cc2CCc2cccc(c2)Nc2ncc(Cl)c(n2)N3)C1 (stereo not shown) [Example D88, tris(trifluoroacetate)]
Req: # rank by IC50, ascending (min first) Reply with the item labels sorted in the order that was asked for.
Resp: IV, III, I, II
(IV: 14 nM, III: 21 nM, I: 56 nM, II: 742 nM)

###

molecular target: TYK2 (Homo sapiens, UniProt P29597); assay: TYK2 kinase inhibition (Table A1); assay type: biochemical; settings: Table D1
pIC50: −log10 of the molar value.
VALUE_TYPE: pIC50

{"columns": ["COMPOUND", "pIC50"],
 "data": [
  ["O=C(Nc1cccc(C(F)(F)F)c1)N1CCN(c2ccc3cc2CCc2cccc(c2)Nc2ncc(Cl)c(n2)N3)CC1 [Example D91, bis(trifluoroacetate)]", 6.81],
  ["O=C(COc1ccc2cc1CCc1cncc(c1)Nc1ncc(Cl)c(n1)N2)N1CCN(c2ccncc2)CC1 [Example D243, tris(trifluoroacetate)]", 6.49],
  ["O=C(CC1CCN(c2ccccn2)C1)Nc1ccc2cc1CCc1cncc(c1)Nc1ncc(Cl)c(n1)N2 (centres unmarked) [Example D156, tris(trifluoroacetate)]", 6.66]
]}
